Test system: KM12 colon
assay info: NCI tumour cell line growth inhibition, 48 h

{"compound": "Cc1ccc(S(=O)(=O)OC2CSS(=O)CC2OS(=O)(=O)c2ccc(C)cc2)cc1 (centres undefined)", "TGI": "31.3 µM"}
{"compound": "O=C1/C(=C\\c2ccc(O)cc2)CCC/C1=C/c1ccc(Cl)c(Cl)c1", "TGI": "3.77 µM"}
{"compound": "CNc1ccc(C(=O)CC(O)CCC(C)C2OC(=O)CC(O)CC(=O)CC(O)CC(O)CC(O)CC(O)CC3(O)CC(O)C(C(=O)N4CCOCC4)C(CC(OC4OC(C)C(O)C(N)C4O)/C=C/C=C/C=C/C=C\\C=C/C=C/C=C/C2C)O3)cc1 (centres undefined)", "TGI": "0.747 µM"}
{"compound": "COc1cc([C@@H]2OC[C@@H]3C(c4cc(OC)c5c(c4)OCO5)OC[C@@H]32)cc(OC)c1OC (some centres undefined)", "TGI": "> 100 µM"}

====

System: MOLT-4 leukemia
assay info: NCI tumour cell line growth inhibition, 48 h

{"compound": "COCCOC(=O)c1c(C)n([O-])c2cc(Cl)c(Cl)cc2[n+]1=O", "tested system": "MOLT-4 leukemia", "prefix operator": "=", "TGI (µM)": 62.5}
{"compound": "O=C1/C(=C/c2ccccc2O)N=C(c2ccccc2)N1C1Nc2cc3c(cc2S1)NC(N1C(=O)/C(=C/c2ccccc2O)N=C1c1ccccc1)S3 (stereo not given)", "tested system": "MOLT-4 leukemia", "prefix operator": ">", "TGI (µM)": 100}
{"compound": "Nc1ncnc2nc[nH]c12", "tested system": "MOLT-4 leukemia", "prefix operator": "=", "TGI (µM)": 159}
{"compound": "COC(=O)/C(C)=C(/CCC1(C)OCCO1)O[Si](C)(C)C", "tested system": "MOLT-4 leukemia", "prefix operator": ">", "TGI (µM)": 100}
{"compound": "CC(=O)OCC1=C(CCC#N)N2C(=O)C(NC(=O)Cc3cccs3)C2S(=O)C1 (stereo not given)", "tested system": "MOLT-4 leukemia", "prefix operator": ">", "TGI (µM)": 100}
{"compound": "CCC[CH2][Sn]1([CH2]CCC)[O]C(=O)c2cccnc2[O]1", "tested system": "MOLT-4 leukemia", "prefix operator": "=", "TGI (µM)": 5.96}
{"compound": "COc1ccc(-c2cc(=O)[nH]c3c(OC)c4ccccc4c(OC)c23)cc1", "tested system": "MOLT-4 leukemia", "prefix operator": ">", "TGI (µM)": 100}
{"compound": "CCOc1ccccc1N1C(=O)C(=O)C(c2nc3ccccc3o2)C(=O)C1=O", "tested system": "MOLT-4 leukemia", "prefix operator": ">", "TGI (µM)": 100}
{"compound": "CCS(CC)(CC)CC1CCCC2=CCC(P(=O)(c3ccccc3)c3ccccc3)CC21 (stereo not given)", "tested system": "MOLT-4 leukemia", "prefix operator": "=", "TGI (µM)": 25.2}
{"compound": "COc1ccc(-c2nc(-c3nc4ccc(OC)cc4[nH]3)c3ccccn23)cc1", "tested system": "MOLT-4 leukemia", "prefix operator": "=", "TGI (µM)": 16.9}
{"compound": "CC(C)(C)n1cc(-c2ccnc(NCCCNS(=O)(=O)c3ccc(C(F)(F)F)cc3)c2)c(-c2cccc(O)c2)n1", "tested system": "MOLT-4 leukemia", "prefix operator": "=", "TGI (µM)": 6.92}
{"compound": "CSc1nc(C#N)c(/N=C\\N(C)C)n1C", "tested system": "MOLT-4 leukemia", "prefix operator": ">", "TGI (µM)": 100}
{"compound": "CCOC(=O)NC(=O)c1cn(CCOC(=O)CCCCCCCCC(=O)OCCn2cc(C(=O)NC(=O)OCC)c(=O)[nH]c2=O)c(=O)[nH]c1=O", "tested system": "MOLT-4 leukemia", "prefix operator": ">", "TGI (µM)": 100}
{"compound": "CCCCNc1nc(C#N)c(N)s1", "tested system": "MOLT-4 leukemia", "prefix operator": ">", "TGI (µM)": 100}
{"compound": "CN1CCOC(c2ccc(Cl)cc2)O1 (stereo not given)", "tested system": "MOLT-4 leukemia", "prefix operator": ">", "TGI (µM)": 100}

====

Tested on: BT-549 breast
assay info: NCI tumour cell line growth inhibition, 48 h; in the data active = GI50 below about 0.43 µM; inactive = the rest
Classes used: active, inactive

{"compound": "COc1cc(CSc2nc3ccc(C)cc3c(=O)n2-c2ccccc2)cc(OC)c1OC", "category": "inactive"}
{"compound": "C(#Cc1ccccc1C#Cc1cccs1)c1cccs1", "category": "inactive"}
{"compound": "CC(C)(C)c1ccc(Oc2nccc(-c3c(-c4ccc(F)cc4)ncn3C3CCNCC3)n2)cc1", "category": "inactive"}
{"compound": "COc1cc(/C=C/C(=O)c2cccc(Nc3nc(Nc4ccccc4)nc(Nc4ccccc4)n3)c2)cc(OC)c1OC", "category": "inactive"}
{"compound": "C=C1CCC2C3(C)COC(c4ccc(N(C)C)cc4)OC3CCC2(C)C1C/C=C1/C(=O)OCC1O (stereo unspecified)", "category": "inactive"}
{"compound": "Cc1c(C(N)=O)sc2c1C(=O)N(Cc1ccccc1)C1=NN=C(c3ccc(Cl)cc3)CN12", "category": "inactive"}
{"compound": "CCCCCCCCCCCCCCCCCCOc1ccccc1CC(=O)OCC[N+]1(C)CCCCC1", "category": "inactive"}
{"compound": "COc1cc([N+](=O)[O-])c(OC)cc1-c1nc2sc(Cl)cn2c1/C(N)=N/C(=N)N", "category": "inactive"}
{"compound": "CN(O)c1nc(N(C)O)nc(N2CCOCC2)n1", "category": "inactive"}
{"compound": "COc1cnc2c(c1)C(=O)c1c-2n(CCCn2ccnc2)c(=O)c2cc(F)ccc12", "category": "active"}
{"compound": "C=C1C(=O)O[C@H]2[C@H]1CC/C(COC(=O)NCc1cn(C)c3ccccc13)=C\\CC[C@@]1(C)O[C@@H]21", "category": "inactive"}

====

System: TK-10 renal
assay info: NCI tumour cell line growth inhibition, 48 h
*1 amine or outer side, *2 acyl side, *3 side chain or, on linkers, in order; H or OH if unused. Where a SMILES comes first, the peptide text is derived from it. [ ]: non-standard residue; d: D form. The star is where a group is joined. X31 = CC(=O)N(C)SCC(N[*:1])C(=O)[*:2]; Cbz = O=C(OCc1ccccc1)*; Bn = c1ccc(C*)cc1; For = O=C*
This listing pairs compounds with measured TGI.

{"compound": "COc1ccc2cc(C(=O)/C=C/c3ccc(Cl)cc3Cl)ccc2c1", "tested system": "TK-10 renal", "TGI": "> 100 µM"}
{"compound": "CC[C@]1(Cc2ccc(OC)c(OC)c2)C=[N+]([O-])O[C@H](OC2CCCC2(c2ccccc2)c2ccccc2)[C@@H]1OC(=O)c1ccccc1 (some centres not stated)", "tested system": "TK-10 renal", "TGI": "> 33.4 µM"}
{"compound": "Cc1csc2c(=O)n(C3OC(CO)C(O)C3O)c(=O)[nH]c12 (configuration not stated)", "tested system": "TK-10 renal", "TGI": "> 100 µM"}
{"compound": "CN1CCOC(c2ccc(Cl)cc2)O1 (configuration not stated)", "tested system": "TK-10 renal", "TGI": "> 100 µM"}
{"compound": "O=C([CH-]C(=O)c1ccccc1)c1ccccc1.O=C([CH-]C(=O)c1ccccc1)c1ccccc1.[La+3].[OH-].[OH3+]", "tested system": "TK-10 renal", "TGI": "> 100 µM"}
{"compound": "CC/C=C1/C(=O)C=C[C@@H]1C/C=C\\CCCC(=O)OC", "tested system": "TK-10 renal", "TGI": "14.5 µM"}
{"compound": "COc1ccc(-c2cn(-c3cc(OC)c(OC)c(OC)c3)c(SCc3ccccc3)n2)cc1OC", "tested system": "TK-10 renal", "TGI": "> 100 µM"}
{"compound": "O=C(c1cccs1)N(C(=S)N1CCN(c2ccccn2)CC1)c1ccccc1", "tested system": "TK-10 renal", "TGI": "> 100 µM"}
{"compound": "C=CCNC1=C2C[C@@H](C)C[C@@H](OC)[C@H](OC(=O)CCN)[C@H](C)/C=C(\\C)[C@@H](OC(N)=O)[C@H](OC)/C=C\\C=C(/C)C(=O)NC(=CC1=O)C2=O", "tested system": "TK-10 renal", "TGI": "10.5 µM"}
{"compound": "CC(=O)OCC1=C(CCC#N)N2C(=O)C(NC(=O)Cc3cccs3)C2S(=O)C1 (configuration not stated)", "tested system": "TK-10 renal", "TGI": "> 100 µM"}
{"compound": "[N-]=[N+]=Nc1ccccc1C(=O)N1C(=O)c2ccccc2C(=O)N(C(=O)c2ccccc2N=[N+]=[N-])c2ccccc21", "tested system": "TK-10 renal", "TGI": "> 100 µM"}
{"compound": "NN(CC(=O)O)CC(=O)O", "tested system": "TK-10 renal", "TGI": "> 100 µM"}
{"compound": "O=c1[nH]c2cc([N+](=O)[O-])ccc2nc1/C(=N/Nc1ccccc1)C(O)c1ccccc1Cl (configuration not stated)", "tested system": "TK-10 renal", "TGI": "> 100 µM"}
{"compound": "O=C(O)CNC(=O)c1ccc(-c2ccccc2)cc1", "tested system": "TK-10 renal", "TGI": "> 100 µM"}
{"compound": "O=C(CN1CCCCC1)Nc1ccc2sc3ccccc3c(=O)c2n1", "tested system": "TK-10 renal", "TGI": "50.4 µM"}
{"compound": "O=C(Nc1ccc(Cl)cc1)NS(=O)(=O)c1coc2cc(F)ccc2c1=O", "tested system": "TK-10 renal", "TGI": "> 100 µM"}
{"compound": "CCC[CH2][Sn]1([CH2]CCC)[O]C(=O)c2cccnc2[O]1", "tested system": "TK-10 renal", "TGI": "8.23 µM"}
{"compound": "CC(C)C1CC[C@@H](C)C[C@@]1(O)CC(N)=O (some centres not stated)", "tested system": "TK-10 renal", "TGI": "> 100 µM"}
{"compound": "CSc1ccc(C(=C=C=C(c2ccc(SC)s2)c2ccc(SC)s2)c2ccc(SC)s2)s1", "tested system": "TK-10 renal", "TGI": "> 10 µM"}
{"compound": "CC(=O)NC1C(OCc2ccccc2)OC(CO)C(O)C1OC(C)C(=O)NC(C(=O)N[C@@H](CCC(=O)NCCNCCNc1c2ccccc2nc2cccc([N+](=O)[O-])c12)C(N)=O)C(C)C (some centres not stated)", "tested system": "TK-10 renal", "TGI": "> 100 µM"}
{"compound": "CCOC(=O)N1CCN(C=S)CC1", "tested system": "TK-10 renal", "TGI": "> 100 µM"}
{"compound": "OC(c1ccccc1)(c1ccccc1)c1ccncc1", "tested system": "TK-10 renal", "TGI": "> 100 µM"}
{"compound": "CCOc1ccccc1N1C(=O)C(=O)C(c2nc3ccccc3o2)C(=O)C1=O", "tested system": "TK-10 renal", "TGI": "> 100 µM"}
{"compound": "NC1=C(NC(=O)Cc2ccc(F)cc2)C(=O)c2ccccc2C1=O", "tested system": "TK-10 renal", "TGI": "59 µM"}
{"compound": "C=C(C)C(=O)O[C@H]1CC(=C)[C@@H]2C[C@H](O)[C@](O)(CCl)[C@@H]2[C@H]2OC(=O)C(=C)[C@@H]21", "tested system": "TK-10 renal", "TGI": "1.82 µM"}
{"compound": "COc1cc(/C=C/C(=O)c2cccc(Nc3nc(Nc4ccccc4)nc(Nc4ccccc4)n3)c2)cc(OC)c1OC", "tested system": "TK-10 renal", "TGI": "> 100 µM"}
{"compound": "Nc1c(C(=O)c2cccc(-c3ccncc3)c2)cnn1-c1ccc(F)cc1F", "tested system": "TK-10 renal", "TGI": "> 25 µM"}
{"compound": "Cn1c(=O)c(Br)c(C=O)n(CCO[N+](=O)[O-])c1=O", "tested system": "TK-10 renal", "TGI": "15.7 µM"}
{"compound": "COc1ccc2[nH]cc(CCNC(=O)[C@H](Cc3ccccc3)NC(=O)[C@@H](NCC(F)(F)F)C(C)C)c2c1", "tested system": "TK-10 renal", "TGI": "57.4 µM"}
{"compound": "CCSc1[nH]c(NC(=S)NC(=O)c2ccccc2Cl)c(C(N)=O)c1C(N)=O", "tested system": "TK-10 renal", "TGI": "> 10 µM"}
{"compound": "C(=C\\c1cccs1)/c1cccc(/C=C/c2cccs2)n1", "tested system": "TK-10 renal", "TGI": "> 100 µM"}
{"compound": "Cc1cc2ccccc2n2c1nc1ccccc12", "tested system": "TK-10 renal", "TGI": "> 100 µM"}
{"compound": "C=C(C)C1=CCC[C@]2(C1)N=C(OC)[C@@H](C(C)C)N=C2OC", "tested system": "TK-10 renal", "TGI": "> 100 µM"}
{"compound": "COc1cc2c(oc(=O)c3c4oc([Si](C)(C)C)cc4cc(OC)c23)c2cccc(OCc3ccccc3)c12", "tested system": "TK-10 renal", "TGI": "> 66.8 µM"}
{"compound": "COC(=O)/C(C)=C(/CCC1(C)OCCO1)O[Si](C)(C)C", "tested system": "TK-10 renal", "TGI": "> 100 µM"}
{"compound": "CCN(CC)CCCCNc1c2ccccc2[n+](C)c2c1[nH]c1ccccc12", "tested system": "TK-10 renal", "TGI": "12.6 µM"}
{"compound": "CC(=O)N(C)SCC(NC(=O)C(Cc1ccccc1)NC(=O)OCc1ccccc1)C(=O)NC(Cc1ccccc1)C(=O)NC(Cc1cn(C=O)c2ccccc12)C(=O)NC(CCCCNC(=O)OCc1ccccc1)C(=O)NC(C(=O)NC(CSN(C)C(C)=O)C(=O)NC(C(N)=O)C(C)OCc1ccccc1)C(C)OCc1ccccc1 (configuration not stated) (Cbz-F[X31]FW(For)K(Cbz)T(Bn)[X31]T(Bn)-NH2; configuration not given here)", "tested system": "TK-10 renal", "TGI": "57.2 µM"}
